- Test system: SK-MEL-5 melanoma
- ASSAY_REMARKS: NCI tumour cell line growth inhibition, 48 h
Examples of compounds with documented TGI follow.

These recorded examples may help you get a feel for the data.
| COMPOUND | TGT | TGI |
| --- | --- | --- |
| COCC1CCCN1c1ccc(C=N/C(C#N)=C(\N)C#N)cc1 (stereo not drawn) | SK-MEL-5 melanoma | > 100 µM |
| NC(Cc1ccc(OCc2ccccc2)cn1)C(=O)O (stereo not drawn) | SK-MEL-5 melanoma | > 100 µM |

Look up TGI for this compound: O=c1c2c(=NCCN3CCCC3)cc3c(=O)n(CCCN4CCOCC4)c(=O)c4c(-c5ccc(CN6CCCC6)cc5)cc(c(O)n1CCCN1CCOCC1)c2c4-3
0.3 µM

Look up TGI for this compound: Cn1c(=O)[nH]c2nncnc2c1=O
177 µM

Look up TGI for this compound: CN1c2ccccc2N(C(=O)c2ccc([N+](=O)[O-])cc2)C(CC(=O)O)c2cccn21 (stereo not drawn)
> 100 µM

Look up TGI for this compound: C=CCn1c(-c2ccc([N+](=O)[O-])cc2)cs/c1=N\C(P(=O)(O)O)P(=O)(O)O
> 100 µM

Look up TGI for this compound: COC(=O)C1CCC(=O)N1CN(C(C)=O)c1ccccc1Cl (stereo not drawn)
> 100 µM

Look up TGI for this compound: O=C(NC1(c2cc3ccccc3s2)CCCCC1)C1CCC1
> 100 µM

Look up TGI for this compound: CC(O)(Cc1ccccc1C#N)Cc1ccccc1C#N
> 100 µM

Look up TGI for this compound: O=c1[nH]c(Cc2ccccc2)nc2c1sc1nc3ccccc3n12
> 100 µM

Look up TGI for this compound: Cc1cc(S(=O)(=O)Nc2n[nH]c(Nc3ccc(Cl)cc3)n2)c(S)cc1Cl
> 100 µM

----------
- Tested on: EKVX NSCLC
- ASSAY_REMARKS: NCI tumour cell line growth inhibition, 48 h
Examples of compounds with documented TGI follow.

These recorded examples may help you get a feel for the data.
| COMPOUND | TGI |
| --- | --- |
| CC(=O)c1ccc2c(c1)c1cc(C(C)=O)ccc1n2CCNC(C)C | 4.97 µM |
| CC(C)(O)/C=C\P(=O)(O)O | > 100 µM |
| O=C(Oc1cccc2cccnc12)c1cc2c(cc1Cl)SC(N(c1ccc(F)cc1)S(=O)(=O)c1ccc(Br)s1)=NS2(=O)=O | 64.1 µM |

Look up TGI for this compound: Cc1cc(O)c(=O)cc2c1C[C@H]1CC(C)(C)/C=C/C[C@]3(C)Oc4cc(=O)c(O)cc(C)c4C[C@H]3C[C@H](O)[C@@]1(C)O2
> 46.2 µM

Look up TGI for this compound: CC#CC(O)(C(=O)OCCCN(C)C)C1CCCCC1 (centres undefined)
> 100 µM

Look up TGI for this compound: O=C1CSC(/C=C/c2ccccc2)N1c1nc2cc3sc(N4C(=O)CSC4/C=C/c4ccccc4)nc3cc2s1 (centres undefined)
> 80.9 µM

Look up TGI for this compound: Cn1cc(C(=O)c2ccccc2)c2ccccc2c1=O
> 100 µM

Look up TGI for this compound: CC(=O)C1=C(C)N2C(=NC3=C(CCc4ccccc43)C2c2ccc(F)cc2)S1 (centres undefined)
> 100 µM

Look up TGI for this compound: Cc1cc(C)n(CC(Cn2nc(C)cc2C)=C(/C(Cl)=C(/Cl)Nc2ccc([N+](=O)[O-])cc2)[N+](=O)[O-])n1
13.8 µM
